target: hu i-20S β5i (Homo sapiens, UniProt P20618+P28062); experiment: Kinetic parameters of oxathiazolones vs hu i-20S β5i; format: biochemical

>  <COMPOUND>
O=c1oc(-c2ccc(-c3ccccc3)cc2)ns1 [HT2004]

>  <UOM>
nM

>  <Ki>
1400

$$$$

====

target: hu i-20S β5i-subunit (Homo sapiens, UniProt P20618+P28062); assay: N,C-capped dipeptides IC50, Ac-ANW-AMC fluorescence assay; type: biochemical; conditions: Hu c-20S over Hu i-20S
Criterion: SI (selectivity index) strictly less than 10. Met: Criterion met. Not met: Criterion not met.

>  <STRUCTURE_NOTATION>
COC[C@H](NC(=O)[C@H](CC(=O)NOC(C)(C)C)NC(=O)CN1CCOCC1)C(=O)NCc1cccc2ccccc12

>  <TGT>
hu i-20S β5i-subunit (Homo sapiens, UniProt P20618+P28062)

>  <CLASSIFICATION>
Criterion not met

$$$$
>  <STRUCTURE_NOTATION>
CC(C)(C)NC(=O)C[C@H](NC(=O)CCc1ccccc1)C(=O)N[C@@H](Cc1ccc(F)cc1)C(=O)NCc1cccc(-c2ccccc2)c1

>  <TGT>
hu i-20S β5i-subunit (Homo sapiens, UniProt P20618+P28062)

>  <CLASSIFICATION>
Criterion not met

$$$$
>  <STRUCTURE_NOTATION>
COC[C@H](NC(=O)[C@H](CC(=O)NOC(C)(C)C)NC(=O)c1cc(C)on1)C(=O)NCc1cccc2ccccc12

>  <TGT>
hu i-20S β5i-subunit (Homo sapiens, UniProt P20618+P28062)

>  <CLASSIFICATION>
Criterion not met

$$$$
>  <STRUCTURE_NOTATION>
CC(C)(C)NC(=O)C[C@H](NC(=O)C(=O)c1c[nH]c2ccccc12)C(=O)N[C@@H](Cc1ccc(F)cc1)C(=O)NCc1cccc2ccccc12

>  <TGT>
hu i-20S β5i-subunit (Homo sapiens, UniProt P20618+P28062)

>  <CLASSIFICATION>
Criterion not met

$$$$
>  <STRUCTURE_NOTATION>
C[C@H](NC(=O)[C@H](CCC(=O)NC(C)(C)C)NC(=O)CCc1ccccc1)C(=O)NCCc1cccc2ccccc12

>  <TGT>
hu i-20S β5i-subunit (Homo sapiens, UniProt P20618+P28062)

>  <CLASSIFICATION>
Criterion not met

$$$$
>  <STRUCTURE_NOTATION>
COC[C@H](NC(=O)[C@H](CC(=O)NOC(C)(C)C)NC(=O)CCc1ccccc1)C(=O)NCc1cccc2c1NCCC2

>  <TGT>
hu i-20S β5i-subunit (Homo sapiens, UniProt P20618+P28062)

>  <CLASSIFICATION>
Criterion not met

$$$$
>  <STRUCTURE_NOTATION>
COC[C@H](NC(=O)[C@H](CC(=O)NC1COC1)NS(=O)(=O)c1ccc(C)cc1)C(=O)NCc1cccc2ccccc12

>  <TGT>
hu i-20S β5i-subunit (Homo sapiens, UniProt P20618+P28062)

>  <CLASSIFICATION>
Criterion not met

$$$$
>  <STRUCTURE_NOTATION>
COC[C@H](NC(=O)[C@H](CC(=O)NC1COC1)NS(C)(=O)=O)C(=O)NCc1cccc2ccccc12

>  <TGT>
hu i-20S β5i-subunit (Homo sapiens, UniProt P20618+P28062)

>  <CLASSIFICATION>
Criterion not met

$$$$
>  <STRUCTURE_NOTATION>
Cc1ccc(S(=O)(=O)N[C@@H](CCC(=O)NC(C)(C)C)C(=O)N[C@@H](C)C(=O)NOc2ccccc2)cc1

>  <TGT>
hu i-20S β5i-subunit (Homo sapiens, UniProt P20618+P28062)

>  <CLASSIFICATION>
Criterion met

$$$$
>  <STRUCTURE_NOTATION>
COC[C@H](NC(=O)CCc1ccccc1)C(=O)N[C@@H](C)C(=O)NCc1cccc2ccccc12

>  <TGT>
hu i-20S β5i-subunit (Homo sapiens, UniProt P20618+P28062)

>  <CLASSIFICATION>
Criterion met

$$$$
>  <STRUCTURE_NOTATION>
COC[C@H](NC(=O)CCc1ccccc1)C(=O)N[C@@H](Cc1ccc(F)cc1)C(=O)NCc1cccc2ccccc12

>  <TGT>
hu i-20S β5i-subunit (Homo sapiens, UniProt P20618+P28062)

>  <CLASSIFICATION>
Criterion met

$$$$
>  <STRUCTURE_NOTATION>
C[C@H](NC(=O)[C@H](CCC(=O)NC(C)(C)C)NC(=O)CCc1ccccc1)C(=O)NOc1ccccc1

>  <TGT>
hu i-20S β5i-subunit (Homo sapiens, UniProt P20618+P28062)

>  <CLASSIFICATION>
Criterion met

$$$$
